Cited source for all entries: patent US20130216498A1

# tested_on: human JAK3 (aa 795-1124) catalytic domain (Homo sapiens)
# Construct: JAK3 (aa 795-1124); GST (N)
# Sequence (P52333 795-1124): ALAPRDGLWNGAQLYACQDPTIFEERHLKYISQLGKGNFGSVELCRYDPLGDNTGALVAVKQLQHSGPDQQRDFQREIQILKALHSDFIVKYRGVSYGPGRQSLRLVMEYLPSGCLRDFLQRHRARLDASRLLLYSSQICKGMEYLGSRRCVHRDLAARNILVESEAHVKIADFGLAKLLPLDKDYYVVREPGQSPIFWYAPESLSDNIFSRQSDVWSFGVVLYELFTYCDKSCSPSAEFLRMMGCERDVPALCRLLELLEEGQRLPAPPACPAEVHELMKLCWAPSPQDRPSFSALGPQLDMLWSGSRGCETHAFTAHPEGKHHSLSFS
# protocol_notes: In vitro JAK kinase assay (TR-FRET), JAK3
# assay_setup: GST-fusion catalytic domain; ATP 0.6 μM; poly (GT)-Biotin 140 nM; 30 minutes at room temperature
pIC50: −log10 of the molar value.
pIC50 values by entry

Determine its reported pIC50: Nc1cnc(-c2cnc3ccc(F)cn23)nc1NC1CCCc2ncccc21 (centres unmarked)
6.00 to 7.00

For `C[C@H](Nc1cncc(-c2cnc3ccc(C4CC4)cn23)n1)c1ccccc1` , write its pIC50.
6.00 to 7.00

Return pIC50 for the following compound: `CC(C)(C)CNc1ccnc(-c2cnc3ccccn23)n1`
6.00 to 7.00

Indicate its recorded pIC50; the compound in question is `N#CCC(=O)N1CCC[C@@H](Nc2cc(N3CCNCC3)nc(-c3cnc4ccc(F)cn34)n2)C1`
> 7.00

Dear colleague, please send me the reported pIC50 for `O=C(c1cn[nH]c1)N1CCC[C@@H](Nc2ccnc(-c3cnc4ccc(F)cn34)n2)C1` when you can.
6.00 to 7.00

Identify measured pIC50 associated with `N#CCC(=O)N1CCC[C@@H](Nc2cc(N3CCC[C@H]3C(=O)O)nc(-c3cnc4ccc(F)cn34)n2)C1`
6.00 to 7.00

Tell me its pIC50 given `Cc1cnc(-c2cnc3ccc(F)cn23)nc1N[C@@H]1CCN(C(=O)CC#N)C1` as the entry.
6.00 to 7.00

Specify measured pIC50 for `N#CCC(=O)N1CCCN(c2ccnc(-c3cnc4ccc(C#N)cn34)n2)CC1` .
< 6.00

Look up pIC50 of `CC(C)(C)CNc1nc(-c2cnc3ccc(C#N)cn23)ncc1-c1cccnc1` and report it.
6.00 to 7.00

Output pIC50 of `O=C(CC(F)(F)F)N1CCC[C@@H](N(CC2CC2)c2ccnc(-c3cnc4ccc(F)cn34)n2)C1`
6.00 to 7.00

Give pIC50 for the following compound: `CCN(CC)C(=O)[C@H]1CCCN1c1ccnc(-c2cnc3ccc(F)cn23)n1`
< 6.00

Look up pIC50 of `CCCN1CC[C@@H](Nc2ccnc(-c3cnc4ccc(F)cn34)n2)C1=O` and report it.
< 6.00

Item `N#CCC(=O)N1CCC[C@@H](Nc2cc(-n3cncn3)nc(-c3cnc4ccc(F)cn34)n2)C1` : provide pIC50
> 7.00

Specify pIC50 for `N#CCC(=O)N1CCC[C@@H](Nc2cc(OCCN3CCOCC3)nc(-c3cnc4ccc(F)cn34)n2)C1` and stop.
> 7.00

Return pIC50 (reported value) for this compound: `C[C@H](Nc1ccnc(-c2cnc3ccc(C#N)cn23)n1)c1ccccc1`
> 7.00

Identify the reported pIC50 for the following entry. `N#CC[C@H]1CC[C@H](Nc2nc(-c3cnc4ccc(F)cn34)ncc2C(N)=O)CC1`
> 7.00

Provide measured pIC50 value, entry: `CC(C)(C)CNc1nc(-c2cnc3ccc(C#N)cn23)ncc1N1CCNCC1`
6.00 to 7.00

* * *

# tested_on: human JAK2 (aa 826-1132) catalytic domain (Homo sapiens, UniProt O60674)
# Construct: JAK2 (aa 826-1132); GST (N)
# Sequence (O60674 826-1132): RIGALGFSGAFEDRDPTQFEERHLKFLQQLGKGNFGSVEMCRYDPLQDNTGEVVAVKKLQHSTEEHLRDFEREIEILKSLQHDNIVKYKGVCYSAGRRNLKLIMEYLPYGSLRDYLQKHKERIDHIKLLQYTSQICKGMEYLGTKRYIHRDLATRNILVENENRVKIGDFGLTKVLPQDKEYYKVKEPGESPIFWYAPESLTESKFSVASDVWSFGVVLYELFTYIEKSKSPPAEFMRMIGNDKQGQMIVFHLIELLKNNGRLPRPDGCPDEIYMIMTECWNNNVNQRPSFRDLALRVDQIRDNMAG
# protocol_notes: In vitro JAK kinase assay (TR-FRET), JAK2
# assay_setup: GST-fusion catalytic domain; ATP 0.2 μM; poly (GT)-Biotin 20 nM; 30 minutes at room temperature
# Text: Compounds were screened for their ability to inhibit JAK1, JAK2 and JAK3 using the assays as indicated below. The catalytic domains of human JAK1 (aa 850-1154), JAK2 (aa 826-1132), JAK3 (aa 795-1124) and Tyk2 (aa 871-1187) were expressed as N-terminal GST-fusion proteins using a baculovirus expression system and were purchased from Carna Biosciences. […] The degree of phosphorylation was detected by TR-FRET (time-resolved fluorescence energy transfer). […]
pIC50: −log10 of the molar value.
quantity: pIC50

Below, each entry is followed by its recorded pIC50 result.
Annotate the molecule `C[C@@H](c1ccc(F)cn1)N(C)c1nc(-c2cnc3ccc(F)cn23)ncc1C(=O)O` with its measured pIC50.
> 7.00

Quick one: give measured pIC50 for `O=C(CC(F)(F)F)N1CCC[C@@H](N(CC2CC2)c2ccnc(-c3cnc4ccc(F)cn34)n2)C1`
> 7.00

Recall and state the measured pIC50 for `CC(C)(C)CNc1nc(-c2cnc3ccc(C#N)cn23)nc2ccccc12` .
6.00 to 7.00

Let me know recorded pIC50 for `N#CCC(=O)N1CCC[C@@H](Nc2cc(N)nc(-c3cnc4ccc(F)cn34)n2)C1` , thanks.
> 7.00

Further cases:
Could you please provide reported pIC50 for `O=C(c1cn[nH]c1)N1CCC[C@@H](Nc2ccnc(-c3cnc4ccc(F)cn34)n2)C1` ? Thanks!
> 7.00

Identify pIC50 associated with the molecule `CC(C)S(=O)(=O)N1CCC[C@@H](Nc2ccnc(-c3cnc4ccc(C#N)cn34)n2)C1`
6.00 to 7.00

Indicate its recorded pIC50; the molecule in question is `COc1cnc(-c2cnc3ccc(F)cn23)nc1N[C@@H]1CCCN(C(=O)CC#N)C1`
> 7.00

* * *

# tested_on: human JAK2 (aa 826-1132) catalytic domain (Homo sapiens)
# Construct: JAK2 (aa 826-1132); GST (N)
# protocol_notes: In vitro JAK kinase assay (TR-FRET), JAK2
# assay_setup: GST-fusion catalytic domain; ATP 0.2 μM; poly (GT)-Biotin 20 nM; 30 minutes at room temperature
pIC50: −log10 of the molar value.
pIC50 reference

Below: 3 molecules and their reported pIC50.
Please give measured pIC50 of the following entry: `C[C@H](Nc1cncc(-c2cnc3ccc(C4CC4)cn23)n1)c1ccccc1`
> 7.00

Quickly give me recorded pIC50 for O=C(C1CC1(F)F)N1CCC[C@@H](Nc2ccnc(-c3cnc4ccc(F)cn34)n2)C1 (some centres unmarked)
> 7.00

Entry `COCCNc1ccnc(-c2cnc3ccc(C#N)cn23)n1` needs its pIC50 filled in; supply it.
6.00 to 7.00

***
Determine its reported pIC50: `C[C@H](Nc1cncc(-c2cnc3ccc(-c4ccccc4)cn23)n1)c1ccccc1`
6.00 to 7.00

Report measured pIC50; entry is `O=C([C@H](O)CO)N1CCC[C@@H](Nc2nc(-c3cnc4ccc(F)cn34)nc(N3CCOCC3)c2F)C1`
> 7.00

Output measured pIC50 for this item: `N#CCC(=O)N1CCC[C@@H](Nc2cc(N3CCNCC3)nc(-c3cnc4ccc(F)cn34)n2)C1`
> 7.00

Assign pIC50 to the following record: `O=C(Cc1ccc(CO)cc1)N1CCC[C@@H](Nc2ccnc(-c3cnc4ccc(F)cn34)n2)C1`
> 7.00

Dear colleague, please send me the reported pIC50 for `N#CCC(=O)N1CCCN(c2ccnc(-c3cnc4ccc(C#N)cn34)n2)CC1` when you can.
6.00 to 7.00

* * *

# tested_on: human JAK1 (aa 850-1154) catalytic domain (Homo sapiens)
# Construct: human JAK1 (aa 850-1154); GST (N)
# Sequence (P23458 850-1154): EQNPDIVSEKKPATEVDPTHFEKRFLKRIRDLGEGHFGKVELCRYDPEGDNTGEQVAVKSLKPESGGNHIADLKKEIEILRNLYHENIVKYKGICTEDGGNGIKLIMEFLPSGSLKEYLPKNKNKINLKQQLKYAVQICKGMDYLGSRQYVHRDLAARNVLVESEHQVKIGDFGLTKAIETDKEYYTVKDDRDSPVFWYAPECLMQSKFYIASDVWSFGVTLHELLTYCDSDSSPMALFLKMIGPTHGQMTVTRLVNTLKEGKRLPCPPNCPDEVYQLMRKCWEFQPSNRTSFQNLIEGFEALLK
# protocol_notes: In vitro JAK kinase assay (TR-FRET), JAK1
# assay_setup: GST-fusion catalytic domain; ATP 3 μM; poly (GT)-Biotin 60 nM; 30 minutes at room temperature
pIC50: −log10 of the molar value.
# reported pIC50; entries follow

Give the reported value of pIC50 for this record: `N#Cc1ccc(N2CCC[C@@H](Nc3ccnc(-c4cnc5ccc(C#N)cn45)n3)C2)nc1`
< 6.00

Please list pIC50 recorded for the compound `N#Cc1ccc2ncc(-c3nccc(N[C@H]4CC[C@H](O)CC4)n3)n2c1`
< 6.00

Supply measured pIC50 of `CCC[C@H](Nc1nc(-c2cnc3ccc(F)cn23)ncc1C(N)=O)c1ccc(F)cc1` in your reply.
6.00 to 7.00

Look up and state reported pIC50 for `CS(=O)(=O)c1cnc(-c2cnc3ccc(F)cn23)nc1N[C@@H]1CCCN(C(=O)CC#N)C1`
< 6.00

Hello, please tell me recorded pIC50 for this one: `N#CCC(=O)N1CCCN(c2ccnc(-c3cnc4ccc(C#N)cn34)n2)CC1`
< 6.00

Give recorded pIC50. `CN(CC#N)C(=O)N1CCC[C@@H](Nc2ccnc(-c3cnc4ccc(F)cn34)n2)C1`
6.00 to 7.00

Check the records and state pIC50 for `O=C(Cc1ccc(CO)cc1)N1CCC[C@@H](Nc2ccnc(-c3cnc4ccc(F)cn34)n2)C1`
< 6.00

Write down pIC50 measured for item `COCCNc1ccnc(-c2cnc3ccc(C#N)cn23)n1`
< 6.00

* * *

# tested_on: human JAK1 (aa 850-1154) catalytic domain (Homo sapiens)
# Construct: human JAK1 (aa 850-1154); GST (N); purchased Carna Biosciences; host or cells: baculovirus expression system
# protocol_notes: In vitro JAK kinase assay (TR-FRET), JAK1
# Type: biochemical
# assay_setup: GST-fusion catalytic domain; ATP 3 μM; poly (GT)-Biotin 60 nM; 30 minutes at room temperature
pIC50: −log10 of the molar value.
quantity: pIC50

Check out these entries, answers already filled in.
Look up and report measured pIC50 for this entry: `Cc1cnc(-c2cnc3ccc(F)cn23)nc1N[C@@H]1CCN(C(=O)CC#N)C1`
6.00 to 7.00

State its pIC50: `N#CCC(=O)N1CCC[C@@H](Nc2cc(C(=O)O)nc(-c3cnc4ccc(F)cn34)n2)C1`
6.00 to 7.00

Fill in reported pIC50 for this entry: `CC(C)(C)CNc1nc(-c2cnc3ccc(C#N)cn23)ncc1-c1cccnc1`
< 6.00

Hello, please tell me recorded pIC50 for this one: `CCCN1CC[C@@H](Nc2ccnc(-c3cnc4ccc(F)cn34)n2)C1=O`
< 6.00

Identify the reported pIC50 for the following entry. `COc1cnc(-c2cnc3ccc(F)cn23)nc1N[C@@H]1CCCN(C(=O)CC#N)C1`
6.00 to 7.00

Please give measured pIC50 of the following entry: `C[C@@H](c1ccc(F)cn1)N(C)c1nc(-c2cnc3ccc(F)cn23)ncc1C(=O)O`
6.00 to 7.00

Next:
Tell me its pIC50 given `CC(C)(C)CNc1nc(-c2cnc3ccc(C#N)cn23)ncc1N1CCNCC1` as the entry.
< 6.00

Supply measured pIC50 of Fc1ccc2ncc(-c3nccc(N4CCCC4c4ccccn4)n3)n2c1 (stereo not shown) in your reply.
< 6.00

Note pIC50 for the compound shown: O=C(C1CC1(F)F)N1CCC[C@@H](Nc2ccnc(-c3cnc4ccc(F)cn34)n2)C1 (stereo partly shown)
< 6.00

Indicate the recorded pIC50 value for this compound: `O=C(c1cn[nH]c1)N1CCC[C@@H](Nc2ccnc(-c3cnc4ccc(F)cn34)n2)C1`
6.00 to 7.00

For the compound `N#Cc1ccc2ncc(-c3nccc(NC4CCCCC4)n3)n2c1` , give its measured pIC50 value.
6.00 to 7.00

Return value of pIC50 for input `N#CCC(=O)N1CCC[C@@H](Nc2cc(N3CCNCC3)nc(-c3cnc4ccc(F)cn34)n2)C1` , no commentary.
6.00 to 7.00

Check the records and state pIC50 for `C[C@H](Nc1cncc(-c2cnc3ccc(-c4ccccc4)cn23)n1)c1ccccc1`
< 6.00
